Assay metric: logP
Give bare numbers.

Query smiles: CCOC(=O)Cn1cnc([N+](=O)[O-])c1I
Assay metric: logP
Reported result: 0.57

Dear colleague, could you send me logP for each of the items below? Thanks.
1. Cn1c([N+](=O)[O-])cnc1-c1ccccc1
2. CC(C)CN1C(=O)NC(=O)C(=O)C1=O

**Result**
1.58
0.76

----------
Record form. Attribute: logP. Fill in for each entry.
Numbers only.

Illustrative cases are given below, each with its answer.
Compound: CN(C)N=Nc1ccc(S(=O)(=O)CCO)cc1
logP: 1.15

Compound: CCC1COC(Cn2cncn2)(c2ccc(-n3cncn3)cc2Cl)O1 (centres undefined)
logP: 1.28

Compound: CCC(C)NC(=O)C(Br)=Cc1ccccc1 (centres undefined)
logP: 2.66

Compound: CCCN1CC(NS(=O)(=O)N(CC)CC)C=C2c3cc(O)ccc3CCC21 (centres undefined)
logP: 2.63

Compound: O=C(O)CCCCC(S)CCS (centres undefined)
logP: 2.41

Compound: Cc1cc(O)cc(Br)c1O
logP: 1.38

Dear colleague, could you send me logP for each of the items below? Thanks.
1. CCC(=O)c1ccc2c(c1)N(CC(C)N(C)C)c1ccccc1S2 (centres undefined)
2. CCC(C)(C)c1ccc(C2CCCC(O)C2)c(O)c1 (centres undefined)

**Result**
1. 4.79
2. 4.32

Dear colleague, could you send me logP for each of the items below? Thanks.
1. C#CCOc1c(Cl)cc(NC=NOCOCC)cc1Cl
2. CC(O)CNC(=O)C(F)(F)Cn1cnc([N+](=O)[O-])n1 (centres undefined)

**Result**
1. 3.5
2. -0.47
